Entries annotated with measured Number of Mice with Plasma Concentration < LLOQ
- Experimental Details: Compound plasma concentration, LC-MS/MS, 8 h post dose
- Type: in vivo
- Conditions: 30 mg/kg, mice below LLOQ / mice in group
Measure Name: Number of Mice with Plasma Concentration < LLOQ

# Smiles Representation, Assay Value
measured = [
    ("CN(C[C@H](O)[C@@H](O)[C@H](O)[C@H](O)CO)C(=O)CCc1cc(Cl)c(CN2CSC[C@H]2C(=O)N2CCN(C3CC3)c3ccccc32)cc1Cl", "7/8"),
    ("O=C(CCCCc1cc(Cl)c(COC2(C(=O)N3CCN(C4CC4)c4ccccc43)CC2)cc1Cl)NC[C@H](O)[C@@H](O)[C@H](O)[C@H](O)CO", "5/8"),
    ("Cn1c(C(=O)NC[C@H](O)[C@@H](O)[C@H](O)[C@H](O)CO)cnc1SCc1cc(Cl)c(CN2CSC[C@H]2C(=O)N2CCN(C3CC3)c3ccccc32)cc1Cl", "7/8"),
]
